# Target Desc: AKT1 E17K (Homo sapiens, UniProt P31749, E17K)
# Sequence (P31749 whole entry E17K): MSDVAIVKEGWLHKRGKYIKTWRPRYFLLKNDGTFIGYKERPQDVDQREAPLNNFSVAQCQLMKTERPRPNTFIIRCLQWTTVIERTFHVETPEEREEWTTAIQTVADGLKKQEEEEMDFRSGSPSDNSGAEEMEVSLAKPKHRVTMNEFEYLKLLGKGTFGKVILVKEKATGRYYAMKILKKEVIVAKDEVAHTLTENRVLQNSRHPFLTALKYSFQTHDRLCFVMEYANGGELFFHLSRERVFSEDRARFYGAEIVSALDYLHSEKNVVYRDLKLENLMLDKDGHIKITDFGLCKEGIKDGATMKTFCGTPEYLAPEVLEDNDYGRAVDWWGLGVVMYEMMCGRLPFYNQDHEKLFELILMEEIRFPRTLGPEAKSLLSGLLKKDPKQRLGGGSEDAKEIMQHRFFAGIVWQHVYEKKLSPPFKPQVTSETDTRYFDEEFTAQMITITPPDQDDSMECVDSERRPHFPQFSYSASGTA
# Assay Protocol: Live cell AKT1 E17K target engagement by NanoBRET competitive probe displacement
# Measurement Setup: HEK293 cells transfected with kinase-NanoLuciferase fusion, 2 h at 37° C.
Recorded Metric: IC50 (nM)

Would you please look over these solved cases?
[[record]]
compound = "C=CC(=O)N1CCC(N[C@H]2CCc3cc(-n4c(-c5cccnc5N)nc5ccc(-c6nnc(C)o6)nc54)ccc32)CC1 [Example 256]"
target_desc = "AKT1 E17K (Homo sapiens, UniProt P31749, E17K)"
recorded_metric = "IC50"
endpoint_value = 186

[[record]]
compound = "C=CC(=O)NC1CCC(N[C@H]2CCc3cc(-n4c(-c5cccnc5N)nc5ccc(-n6cccn6)nc54)ccc32)CC1 (single isomer, unassigned) [Example 48]"
target_desc = "AKT1 E17K (Homo sapiens, UniProt P31749, E17K)"
recorded_metric = "IC50"
endpoint_value = 799

[[record]]
compound = "C=CC(=O)N1CCC(N[C@H]2CCc3cc(-n4c(-c5cccnc5N)nc5ccc(-n6cccn6)nc54)ccc32)C[C@H]1C(F)F (single isomer, unassigned) [Example 214]"
target_desc = "AKT1 E17K (Homo sapiens, UniProt P31749, E17K)"
recorded_metric = "IC50"
endpoint_value = 4.72


(a) C=CC(=O)N1CCC(N[C@H]2CCc3cc(-n4c(-c5cccnc5N)nc5cc(C(F)(F)F)cnc54)ccc32)CC1 [Example 216]
(b) C=CC(=O)N1CCC(N[C@@H]2c3ccc(-n4c(-c5ccccc5F)nc5ccc(-n6cccn6)nc54)cc3CC2F)C[C@H]1C (single isomer, unassigned) [Example 316]
Query block: Input pair: a , b . Output: entry with lower IC50. Bench note: the answer is the label of the chosen record.
Result block: b

(P) C=CC(=O)N1CCC(N[C@@H]2c3ccc(-n4c(-c5ccccc5)nc5ccc(-n6cccn6)nc54)cc3CC2F)CC1C(F)F (single isomer, unassigned) [Example 331]
(Q) C=CC(=O)N1CCC(N[C@H]2CCc3cc(-n4c(-c5cccnc5N)nc5ccc(-n6cccn6)nc54)ccc32)C[C@H]1COC (single isomer, unassigned) [Example 130]
Query block: Input pair: P , Q . Output: entry with lower IC50. Bench note: the answer is the label of the chosen record.
Result block: P

(I) C=CC(=O)N1CCC(N[C@H]2CCc3cc(-n4c(-c5cccnc5N)nc5ccc(-n6cccn6)nc54)ccc32)C(C)(F)C1 (single isomer, unassigned) [Example 307]
(II) C=CC(=O)N1CCC(N[C@H]2CCc3cc(-n4c(-c5cccnc5N)nc5ccc(-n6cccn6)nc54)ccc32)C[C@@H]1COC (single isomer, unassigned) [Example 165]
Query block: Input pair: I , II . Output: entry with lower IC50. Bench note: the answer is the label of the chosen record.
Result block: I

(a) C=CC(=O)N1CCC(N[C@@H]2c3ccc(-n4c(-c5cccnc5N)nc5ccc(-n6cccn6)nc54)cc3CC2C)CC1 (single isomer, unassigned) [Example 181]
(b) C=CC(=O)N1CCC(N[C@H]2CCc3cc(-n4c(-c5cccnc5N)nc5ccc(-n6ccc(C7CCOCC7)n6)nc54)ccc32)CC1 [Example 321]
Query block: Input pair: a , b . Output: entry with lower IC50. Bench note: the answer is the label of the chosen record.
Result block: b

====

# Target Desc: UniProtKB P31749
# Assay Protocol: Live cell AKT1 WT target engagement by NanoBRET competitive probe displacement
# Measurement Setup: HEK293 cells transfected with kinase-NanoLuciferase fusion, 2 h at 37° C.
pIC50: −log10 of the molar value.
Recorded Metric: pIC50

[[record]]
compound = "C=CC(=O)N1CCC(N[C@H]2CCc3cc(-n4c(-c5cccnc5N)nc5ccc(C6CC6)nc54)ccc32)C(C)C1 (single isomer, unassigned) [Example 230]"
recorded_metric = "pIC50"
endpoint_value = 6.05

[[record]]
compound = "C=CC(=O)N1CCC(N[C@H]2CCc3cc(-n4c(-c5cccnc5N)nc5ccc(-c6ccccn6)nc54)ccc32)CC1"
recorded_metric = "pIC50"
endpoint_value = 7.31

[[record]]
compound = "Nc1ncccc1-c1nc2ccc(-n3cccn3)nc2n1-c1ccc2c(c1)CC[C@@H]2NC1CCN(C(=O)C(F)Cl)CC1 (stereo partly drawn)"
recorded_metric = "pIC50"
endpoint_value = 5.87

[[record]]
compound = "C=CC(=O)N1CCC(N[C@@H]2c3ccc(-n4c(-c5cccnc5N)nc5ccc(-n6cccn6)nc54)cc3CC2F)C(C)C1 (single isomer, unassigned) [Example 288]"
recorded_metric = "pIC50"
endpoint_value = 5.68

[[record]]
compound = "C=CC(=O)N1CCCC(N[C@H]2CCc3cc(-n4c(-c5cccnc5N)nc5ccc(-n6cccn6)nc54)ccc32)CC1 (single isomer, unassigned) [Example 82]"
recorded_metric = "pIC50"
endpoint_value = 7.11

[[record]]
compound = "C=CC(=O)Nc1cnccc1C(=O)N[C@H]1CCc2cc(-n3c(-c4cccnc4N)nc4ccc(-n5cccn5)nc43)ccc21"
recorded_metric = "pIC50"
endpoint_value = 6.52

[[record]]
compound = "C=CC(=O)N1CCC(N[C@H]2CCc3cc(-n4c(-c5cccnc5N)nc5ccc(N6CCN(C)CC6)nc54)ccc32)CC1"
recorded_metric = "pIC50"
endpoint_value = 5.48

[[record]]
compound = "C=CC(=O)N1CC2COC(C1)C2N[C@H]1CCc2cc(-n3c(-c4cccnc4N)nc4ccc(-n5cccn5)nc43)ccc21 (stereo partly drawn)"
recorded_metric = "pIC50"
endpoint_value = 5.91


(A) C=CC(=O)N1CCC(N[C@H]2CCc3cc(-n4c(-c5cccnc5N)nc5ccc(-c6nnc(C)o6)nc54)ccc32)CC1
(B) CC#CC(=O)NCc1ccccc1C(=O)N[C@H]1CCc2cc(-n3c(-c4cccnc4N)nc4ccc(-n5cccn5)nc43)ccc21
(C) C=CC(=O)N1CCC(N[C@H]2CCc3cc(-n4c(-c5cccnc5N)nc5ccc(-n6cccn6)nc54)ccc32)C(O)C1 (single isomer, unassigned) [Example 139]
Query block: Your job: order these 3 records by pIC50, ascending. Answer format: the labels, ordered as requested.
Result block: A, B, C
(A: 5.77, B: 7.06, C: 7.87)

(P) C=CC(=O)N1CC2CC1CCC2N[C@H]1CCc2cc(-n3c(-c4cccnc4N)nc4ccc(-n5cccn5)nc43)ccc21 (stereo partly drawn)
(Q) C=CC(=O)N1CCC(N[C@@H]2c3ccc(-n4c(-c5cccnc5N)nc5ccc(-n6cccn6)nc54)cc3CC2F)C[C@H]1C (single isomer, unassigned) [Example 145]
Query block: Input pair: P , Q . Output: entry with lower pIC50. Bench note: the answer is the label of the chosen record.
Result block: P
(P: 6.52, Q: 7.53)

====

# Target Desc: AKT1 E17K (Homo sapiens, UniProt P31749, E17K)
# Assay Protocol: Live cell AKT1 E17K target engagement by NanoBRET competitive probe displacement
# Measurement Setup: HEK293 cells transfected with kinase-NanoLuciferase fusion, 2 h at 37° C.
Recorded Metric: IC50 (nM)

Would you please look over these solved cases?
[[record]]
molecule = "C=CC(=O)N1CCC(NC2CCc3cc(-n4c(-c5cccnc5N)nc5ccc(C6CC6(F)F)nc54)ccc32)CC1 (single isomer, unassigned) [Example 244]"
u = "nM"
endpoint_value = 20.1

[[record]]
molecule = "C=CC(=O)N1CCC(N[C@H]2CCc3cc(-n4c(-c5cccnc5N)nc5ccc(-n6cccn6)nc54)ccc32)C(F)C1 (single isomer, unassigned) [Example 105]"
u = "nM"
endpoint_value = 14.8

[[record]]
molecule = "C=CC(=O)N1CC2(CCCC(N[C@H]3CCc4cc(-n5c(-c6cccnc6N)nc6ccc(-n7cccn7)nc65)ccc43)C2)C1 (single isomer, unassigned) [Example 79]"
u = "nM"
endpoint_value = 14.2

[[record]]
molecule = "C=CC(=O)N1CCC(NC2CCc3cc(-n4c(-c5cccnc5N)nc5ccc(C(F)F)nc54)ccc32)CC1 (stereo in doubt)"
u = "nM"
endpoint_value = 96.6

[[record]]
molecule = "CC#CC(=O)Nc1cccc(C(=O)N[C@H]2CCc3cc(-n4c(-c5cccnc5N)nc5ccc(-n6cccn6)nc54)ccc32)c1"
u = "nM"
endpoint_value = 12.9

[[record]]
molecule = "C=CC(=O)N1CCC(CN[C@H]2CCc3cc(-n4c(-c5cccnc5N)nc5ccc(-n6cccn6)nc54)ccc32)CC1"
u = "nM"
endpoint_value = 21.9

[[record]]
molecule = "C=CC(=O)NCc1ccccc1C(=O)N[C@H]1CCc2cc(-n3c(-c4cccnc4N)nc4ccc(-n5nccn5)nc43)ccc21"
u = "nM"
endpoint_value = 39.8

[[record]]
molecule = "C=CC(=O)N1CCC(N[C@H]2CCc3cc(-n4c(-c5cccnc5N)nc5ccc(-n6cccn6)nc54)ccc32)C(C)C1 (single isomer, unassigned) [Example 101]"
u = "nM"
endpoint_value = 82.3


(P) C=CC(=O)N1CCC(N[C@@H]2c3ccc(-n4c(-c5cccnc5N)nc5ccc(-n6cccn6)nc54)cc3CC2F)C(C)C1 (single isomer, unassigned) [Example 289]
(Q) CC#CC(=O)NCc1ccccc1C(=O)N[C@H]1CCc2cc(-n3c(-c4cccnc4N)nc4ccc(-n5cccn5)nc43)ccc21
Query block: Kindly identify which of P and Q has the larger recorded IC50 value. Bench note: the answer is the label of the chosen record.
Result block: P
